Property: IC50; scope: individual compounds
Target: Recombinant human TRKC (Homo sapiens, UniProt Q16288)
Sequence (Q16288 32-839): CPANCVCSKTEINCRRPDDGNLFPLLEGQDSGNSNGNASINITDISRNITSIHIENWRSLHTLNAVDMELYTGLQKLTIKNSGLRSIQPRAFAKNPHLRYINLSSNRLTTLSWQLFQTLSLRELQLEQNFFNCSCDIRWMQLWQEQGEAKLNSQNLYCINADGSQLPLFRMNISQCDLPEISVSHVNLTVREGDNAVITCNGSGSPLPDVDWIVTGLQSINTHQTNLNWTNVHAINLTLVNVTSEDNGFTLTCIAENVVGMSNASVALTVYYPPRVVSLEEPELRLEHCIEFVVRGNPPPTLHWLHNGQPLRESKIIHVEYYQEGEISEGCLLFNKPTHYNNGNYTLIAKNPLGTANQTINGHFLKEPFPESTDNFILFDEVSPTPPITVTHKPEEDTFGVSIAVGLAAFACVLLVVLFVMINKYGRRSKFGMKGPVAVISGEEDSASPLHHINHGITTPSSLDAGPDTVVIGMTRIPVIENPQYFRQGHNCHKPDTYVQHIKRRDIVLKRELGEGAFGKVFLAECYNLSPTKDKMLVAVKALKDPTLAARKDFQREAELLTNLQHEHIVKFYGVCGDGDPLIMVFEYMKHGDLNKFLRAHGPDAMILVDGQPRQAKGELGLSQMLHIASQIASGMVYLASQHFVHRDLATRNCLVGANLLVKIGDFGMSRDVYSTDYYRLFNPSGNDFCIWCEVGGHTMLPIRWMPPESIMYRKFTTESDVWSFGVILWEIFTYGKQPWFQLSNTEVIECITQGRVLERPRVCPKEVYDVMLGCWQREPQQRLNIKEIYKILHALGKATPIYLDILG
Test: In vitro activity test on TRKC kinase (HTRF KinEASE TK)
Conditions: 25.64 μM ATP, 40 min
Method: Biological Test Example 1 In Vitro Activity Test on TRKA, TRKB, TRKC Kinase Recombinant human TRKA, TRKB, TRKC proteins were purchased from Carna Biosciences. HTRF KinEASE TK kit was purchased from Cisbio Bioassays. Synergy Neo 2 of Biotek was used to read the plate. […] 10 μL of detection reagent was added to the plate (containing 0.125 μM SA-XL665 and 5 μL 1×TK-Antibody) and incubated overnight at room temperature, and Synergy Neo 2 was used to read the plate. […]

Below are worked cases with known answers.
CN1CCC(n2cc(-c3c(Cl)cnc4ccc(N5C[C@@H](F)C[C@@H]5c5cc(F)ccc5F)nc34)cn2)CC1 :: < 0.001 µM
Fc1ccc(F)c([C@H]2C[C@H](F)CN2c2ccc3ncc(Cl)c(-c4cnn(C5CCNCC5)n4)c3n2)c1 :: < 0.001 µM
Fc1ccc(F)c([C@H]2C[C@H](F)CN2c2ccc3ncc(Cl)c(-c4cnc(C5CCNCC5)s4)c3n2)c1 :: < 0.01 µM
CC(C)N1CCC(n2cc(-c3ccnc4ccc(N5C[C@@H](F)C[C@@H]5c5cc(F)ccc5F)nc34)cn2)CC1 :: < 0.001 µM
Fc1ccc(F)c([C@H]2C[C@H](F)CN2c2ccc3ncc(Cl)c(-c4cnn([C@H]5CCCNC5)c4)c3n2)c1 :: < 0.5 µM
OC1CCC(Nc2ccnc3ccc(N4C[C@@H](F)C[C@@H]4c4cc(F)ccc4F)nc23)C1 (stereo partly drawn) :: < 0.01 µM
Fc1ccc(F)c([C@H]2C[C@H](F)CN2c2ccc3ncnc(-c4cn(C5CCNCC5)nn4)c3n2)c1 :: < 0.001 µM
Fc1ccc(Cl)c([C@H]2CCCN2c2ccc3ncc(F)c(-c4cnn(C5CCNCC5)c4)c3n2)c1 :: < 0.01 µM

Reported IC50 for `O=C(Nc1c(Cl)cnc2ccc(N3C[C@@H](F)C[C@@H]3c3cc(F)ccc3F)nc12)N1CC[C@H](O)C1` was < 0.01 µM

Data point: `Fc1ccc(F)c([C@H]2C[C@H](F)CN2c2ncc3ncnc(-c4cnn(C5CCNCC5)c4)c3n2)c1` ; IC50 = < 0.01 µM

For `Fc1ccc(F)c([C@H]2C[C@H](F)CN2c2ccc3ncc(Cl)c(-c4cn(C5CCNCC5)nn4)c3n2)c1` the compound record lists IC50 as < 0.001 µM

Reported IC50 for `CN(C)c1ccnc2ccc(N3CCC[C@@H]3c3cc(F)ccc3F)nc12` was < 0.01 µM

Lab note: measured IC50 of `NC(=O)CN1CCC(n2cc(-c3c(F)cnc4ccc(N5C[C@@H](F)C[C@@H]5c5cc(F)ccc5F)nc34)cn2)CC1` was < 0.001 µM

The recorded IC50 for entry `Fc1ccc(F)c([C@H]2CCCN2c2ccc3ncc(F)c(-c4cnn(C5CNC5)c4)c3n2)c1` equals < 0.01 µM

The reported IC50 of the compound `Fc1ccc(F)c([C@H]2C[C@H](F)CN2c2ccc3ncc(F)c(-c4cnn(C5CNC5)c4)c3n2)c1` was < 0.001 µM

Reported IC50 of `O[C@H]1CCN(c2nc(-c3c(F)cnc4ccc(N5C[C@@H](F)C[C@@H]5c5cc(F)ccc5F)nc34)no2)C1` : < 0.01 µM

Kindly note the recorded IC50 for `Fc1ccc(F)c([C@H]2C[C@H](F)CN2c2ccc3ncc(Cl)c(-c4cnn([C@@H]5CCCNC5)c4)c3n2)c1` , which is < 0.01 µM
